biological target: GPR1 (Homo sapiens, UniProt P46091); construct: expressed in transfected cells; host or cells: COS-7, transient; test: cell-based; conditions: COS-7
Sequence (P46091 whole entry): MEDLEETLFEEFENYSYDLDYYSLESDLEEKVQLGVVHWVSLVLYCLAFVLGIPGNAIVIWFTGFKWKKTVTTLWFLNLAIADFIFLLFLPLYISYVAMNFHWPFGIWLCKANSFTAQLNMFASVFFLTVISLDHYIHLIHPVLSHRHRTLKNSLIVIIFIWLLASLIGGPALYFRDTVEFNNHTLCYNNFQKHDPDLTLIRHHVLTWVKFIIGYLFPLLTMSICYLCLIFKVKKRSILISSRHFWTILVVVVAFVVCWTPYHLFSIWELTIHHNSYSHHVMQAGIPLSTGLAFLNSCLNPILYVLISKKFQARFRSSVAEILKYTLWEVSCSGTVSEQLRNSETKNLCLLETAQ
Sequence (P32120 whole entry partner): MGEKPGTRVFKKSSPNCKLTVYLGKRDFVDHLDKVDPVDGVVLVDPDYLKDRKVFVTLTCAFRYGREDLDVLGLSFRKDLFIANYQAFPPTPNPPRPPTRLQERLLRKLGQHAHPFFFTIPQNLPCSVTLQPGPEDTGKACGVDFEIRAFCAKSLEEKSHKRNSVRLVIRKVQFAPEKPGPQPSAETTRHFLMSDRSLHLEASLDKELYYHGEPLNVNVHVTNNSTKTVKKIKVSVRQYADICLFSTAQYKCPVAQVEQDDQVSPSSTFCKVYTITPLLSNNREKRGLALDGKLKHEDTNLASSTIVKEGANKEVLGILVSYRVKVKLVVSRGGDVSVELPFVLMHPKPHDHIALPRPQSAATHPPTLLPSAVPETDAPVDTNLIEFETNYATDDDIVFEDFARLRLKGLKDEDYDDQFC
Ends that are not written are not given here.
Exercise: state measured Emax for each of the sequences provided.
Give a bare numeral; the unit % is implied.

Record QRAGEDPHSFYFPGQFAFS [Chem^139−157] / GPR1 (Homo sapiens, UniProt P46091), Emax recorded as 94

Summary: FPGQFAFS [Chem^150−157] , GPR1 (Homo sapiens, UniProt P46091), Emax = 87

Tested on GPR1 (Homo sapiens, UniProt P46091): YFPGQFAF [Chem^149−156] . Observed Emax: 110

Item: QRAGEDPHSFYFPGQFAF [Chem^139−156] | System: GPR1 (Homo sapiens, UniProt P46091) | Emax: 99

Provenance of the data: paper PMC8429170
